target: HLA-B*15:01; assay: IEDB peptide-MHC binding, purified MHC/direct/fluorescence; filed as Kd, often an IC50 or EC50 that approximates it; bounds were set here for any values at or beyond the usual limits of such assays; settings: source organism: Influenza A virus (A/tern/Australia/1/04(H2N5))
Observed Property: Kd

Answer with the recorded Kd of LLTEVETYV only.
≥ 20 µM

---

target: HLA-A*02:06; test: IEDB peptide-MHC binding, purified MHC/competitive/radioactivity; filed as Kd, often an IC50 or EC50 that approximates it; bounds were set here for any values at or beyond the usual limits of such assays; conditions: source organism: Mammarenavirus brazilense
Observed Property: Kd
Please state the number and follow it with the unit.

Give reported Kd for SNPNLFWAV (HLA-A*02:06)
34.6 nM

---

molecular target: HLA-A*02:50; assay: IEDB peptide-MHC binding, purified MHC/competitive/fluorescence; filed as Kd, often an IC50 or EC50 that approximates it; bounds were set here for any values at or beyond the usual limits of such assays; details: source organism: Aeromonas salmonicida subsp. salmonicida
Observed Property: Kd

Give reported Kd for FMIDWILDA (HLA-A*02:50)
≤ 0.1 nM

---

molecular target: HLA-B*46:01; assay: IEDB peptide-MHC binding, purified MHC/direct/fluorescence; filed as Kd, often an IC50 or EC50 that approximates it; bounds were set here for any values at or beyond the usual limits of such assays; conditions: source organism: Squirrelpox virus
pKd: −log10 of the molar value.
Observed Property: pKd

Answer with the recorded pKd of MACHRVLTY only.
≤ 4.70

---

target: HLA-A*02:01; assay: IEDB peptide-MHC binding, purified MHC/direct/fluorescence; filed as Kd, often an IC50 or EC50 that approximates it; bounds were set here for any values at or beyond the usual limits of such assays; conditions: source organism: Yellow fever virus
Observed Property: Kd

Answer with the recorded Kd of FHKRDMRLL only.
≥ 20 µM

---

target: HLA-A*02:03; experiment: IEDB peptide-MHC binding, purified MHC/competitive/fluorescence; filed as Kd, often an IC50 or EC50 that approximates it; bounds were set here for any values at or beyond the usual limits of such assays; conditions: source organism: Homo sapiens
Observed Property: Kd

Answer with the recorded Kd of FWAWSVLRV only.
≥ 20 µM

---

So I've got a bunch of sequences here, and I need their Kd values.
molecular target: HLA-A*02:03; experiment: IEDB peptide-MHC binding, purified MHC/direct/fluorescence; filed as Kd, often an IC50 or EC50 that approximates it; bounds were set here for any values at or beyond the usual limits of such assays; conditions: source organism: Zaire ebolavirus

TPSHYSGNI: ≥ 20 µM

Next sequence, Kd to be filled in.
Answer with the recorded Kd of TVAPPAPVY only.
≥ 20 µM

---

target: HLA-B*51:01; test: IEDB peptide-MHC binding, purified MHC/competitive/fluorescence; filed as Kd, often an IC50 or EC50 that approximates it; bounds were set here for any values at or beyond the usual limits of such assays; settings: source organism: Vibrio vulnificus YJ016
Observed Property: Kd (nM)
Give bare numbers, in nM.

Answer with the recorded Kd of LPVLSLNWV only.
278

---

biological target: HLA-A*02:03; test: IEDB peptide-MHC binding, purified MHC/competitive/fluorescence; filed as Kd, often an IC50 or EC50 that approximates it; bounds were set here for any values at or beyond the usual limits of such assays; details: source organism: Salmonella enterica subsp. enterica serovar Typhi str. CT18
pKd: −log10 of the molar value.
Observed Property: pKd

Give reported pKd for KSKPRIHGY (HLA-A*02:03)
≤ 4.70

---

biological target: HLA-A*24:03; assay: IEDB peptide-MHC binding, purified MHC/direct/fluorescence; filed as Kd, often an IC50 or EC50 that approximates it; bounds were set here for any values at or beyond the usual limits of such assays; settings: source organism: Influenza A virus (A/quail/Hong Kong/FY298/00(H9N2))
Observed Property: Kd

Answer with the recorded Kd of SYLIRALTL only.
≤ 1 nM

---

target: HLA-B*57:01; assay: IEDB peptide-MHC binding, purified MHC/competitive/radioactivity; filed as Kd, often an IC50 or EC50 that approximates it; bounds were set here for any values at or beyond the usual limits of such assays; settings: source organism: Dengue virus 1 Singapore/S275/1990
Observed Property: Kd (nM)
Give bare numbers, in nM.

Give reported Kd for GASHNILVEV (HLA-B*57:01)
785

---

target: HLA-B*15:01; assay: IEDB peptide-MHC binding, purified MHC/direct/fluorescence; filed as Kd, often an IC50 or EC50 that approximates it; bounds were set here for any values at or beyond the usual limits of such assays; conditions: source organism: Pseudomonas aeruginosa
Observed Property: Kd (nM)
Give bare numbers, in nM.

Answer with the recorded Kd of ALEPGFKDY only.
482

---

target: HLA-A*33:01; assay: IEDB peptide-MHC binding, purified MHC/competitive/radioactivity; filed as Kd, often an IC50 or EC50 that approximates it; bounds were set here for any values at or beyond the usual limits of such assays; details: source organism: Mammarenavirus whitewaterense
Observed Property: Kd

Answer with the recorded Kd of SRLFEDLVWK only.
≥ 70 µM

---

molecular target: HLA-B*15:17; experiment: IEDB peptide-MHC binding, purified MHC/competitive/fluorescence; filed as Kd, often an IC50 or EC50 that approximates it; bounds were set here for any values at or beyond the usual limits of such assays; conditions: source organism: Orthohantavirus andesense
Observed Property: Kd

Give reported Kd for AYDHGNVIL (HLA-B*15:17)
≥ 20 µM

---

target: HLA-A*69:01; test: IEDB peptide-MHC binding, purified MHC/competitive/fluorescence; filed as Kd, often an IC50 or EC50 that approximates it; bounds were set here for any values at or beyond the usual limits of such assays; conditions: source organism: Salmonella enterica subsp. enterica serovar Typhi str. CT18
Observed Property: Kd

Answer with the recorded Kd of KSKPRIHGY only.
≥ 20 µM

---

molecular target: HLA-C*14:02; assay: IEDB peptide-MHC binding, purified MHC/competitive/fluorescence; filed as Kd, often an IC50 or EC50 that approximates it; bounds were set here for any values at or beyond the usual limits of such assays; conditions: source organism: Yersinia pestis CO92
Observed Property: pKd
Numbers only, as −log10 of the molar value.

Answer with the recorded pKd of YQLEMYHPI only.
7.15

---

target: HLA-B*15:01; test: IEDB peptide-MHC binding, purified MHC/competitive/fluorescence; filed as Kd, often an IC50 or EC50 that approximates it; bounds were set here for any values at or beyond the usual limits of such assays; conditions: source organism: Escherichia coli 536
Observed Property: Kd (nM)
Give bare numbers, in nM.

Answer with the recorded Kd of QMLPGYFRF only.
223

---

molecular target: HLA-A*31:01; test: IEDB peptide-MHC binding, purified MHC/competitive/radioactivity; filed as Kd, often an IC50 or EC50 that approximates it; bounds were set here for any values at or beyond the usual limits of such assays; conditions: source organism: Vaccinia virus WR
pKd: −log10 of the molar value.
Entry flag: YES if pKd reaches 6; NO if it does not.

ISYCRAFIY: YES

Hi team, for TSLAIKNYYR , is the recorded pKd at or above 6?
YES

Hi team, for AISSRVDRY , is the recorded pKd at or above 6?
NO

Hi team, for NAILHNIYR , is the recorded pKd at or above 6?
YES

Hi team, for FTLNHVLALK , is the recorded pKd at or above 6?
YES

Hi team, for KSTELIRRVR , is the recorded pKd at or above 6?
YES

---

target: HLA-A*02:01; assay: IEDB peptide-MHC binding, purified MHC/direct/fluorescence; filed as Kd, often an IC50 or EC50 that approximates it; bounds were set here for any values at or beyond the usual limits of such assays; conditions: source organism: Influenza A virus (A/Puerto Rico/8/34/Mount Sinai(H1N1))
Observed Property: pKd
Give bare numbers, as −log10 of the molar value.

Answer with the recorded pKd of LLTEVETYV only.
7.92

---

target: HLA-B*46:01; test: IEDB peptide-MHC binding, purified MHC/direct/fluorescence; filed as Kd, often an IC50 or EC50 that approximates it; bounds were set here for any values at or beyond the usual limits of such assays; details: source organism: Influenza A virus (A/Wisconsin/4755/1994(H1N1))
Observed Property: Kd

Give reported Kd for DPKKTGGPI (HLA-B*46:01)
≥ 20 µM

---

So I've got a bunch of sequences here, and I need their Kd values.
biological target: HLA-B*44:02; experiment: IEDB peptide-MHC binding, purified MHC/direct/fluorescence; filed as Kd, often an IC50 or EC50 that approximates it; bounds were set here for any values at or beyond the usual limits of such assays; conditions: source organism: Escherichia coli O157:H7

VTRQIHNPR: ≥ 20 µM

Answer with the recorded Kd of LLDPLYFEV only.
≥ 20 µM
